testedSystem: T1, PBP2a (penicillin binding protein 2a), recombinant soluble (Staphylococcus aureus (MRSA)?, UniProt Q7DHH4 25-668)
T1 sequence: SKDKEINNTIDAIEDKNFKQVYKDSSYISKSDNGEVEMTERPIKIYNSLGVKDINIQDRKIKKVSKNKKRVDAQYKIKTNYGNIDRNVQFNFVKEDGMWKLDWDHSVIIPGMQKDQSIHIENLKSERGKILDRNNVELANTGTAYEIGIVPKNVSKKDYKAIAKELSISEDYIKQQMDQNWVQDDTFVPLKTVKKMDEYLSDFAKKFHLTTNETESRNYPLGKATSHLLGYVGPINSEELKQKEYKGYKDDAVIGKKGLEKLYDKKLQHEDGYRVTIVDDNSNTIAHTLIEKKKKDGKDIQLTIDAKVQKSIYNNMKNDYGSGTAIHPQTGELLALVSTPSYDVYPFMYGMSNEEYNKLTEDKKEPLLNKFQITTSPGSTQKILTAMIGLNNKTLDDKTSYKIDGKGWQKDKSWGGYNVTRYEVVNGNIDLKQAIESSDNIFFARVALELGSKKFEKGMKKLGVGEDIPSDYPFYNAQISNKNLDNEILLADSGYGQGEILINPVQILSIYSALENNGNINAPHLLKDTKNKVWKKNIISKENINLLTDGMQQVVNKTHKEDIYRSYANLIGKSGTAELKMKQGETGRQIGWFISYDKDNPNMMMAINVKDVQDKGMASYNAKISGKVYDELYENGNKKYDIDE
assayText: fluorescence dot blot
property: Kd (nM)
Report only the number, with the unit nM understood.

(Q) Field request: Kd | item: PBP2a-Apt1T1 (ssDNA) DNA: ATGCCATCCTACCAACCCGGTGTTCGTGTGGGTGTAGAGGGGGCGAAGGATGGC
(A) 58
